Format: physicochemical
protocolConditions: 60° C., 1 w
Method: For each salt, approximately 5 mg compound was added into an 8 mL glass vial with a multi-hole aluminum foil cap, and kept at 60° C., 40° C./75% RH for 1 week. […] Appearance by visual observation were recorded followed by purity assessment and XPRD data collection on the residual solids.
recordedEndpoint: XRPD pattern

[[record]]
molecule = "Br.COCC1(O)CCC2(C)C(CCC3C2CCC2(C)C(C(=O)Cn4ccnc4)CCC32)C1 (stereo not shown) [Compound 1 HBr (Form B)]"
result = "Form B"

[[record]]
molecule = "COC[C@@]1(O)CC[C@@]2(C)[C@@H](CC[C@@H]3[C@@H]2CC[C@]2(C)[C@@H](C(=O)Cn4ccnc4)CC[C@@H]32)C1.O=C(O)CC(O)(CC(=O)O)C(=O)O [Compound 1 Citrate (Form B)]"
result = "Form B"


---

Format: physicochemical
protocolConditions: 1.2 million lux-hrs
recordedEndpoint: Final purity
Provide a numeric answer; units are not to be included.

Some solved entries appear below for comparison.
[[record]]
compound = "COC[C@@]1(O)CC[C@@]2(C)[C@@H](CC[C@@H]3[C@@H]2CC[C@]2(C)[C@@H](C(=O)Cn4ccnc4)CC[C@@H]32)C1.O=C(O)C(O)C(O)C(=O)O [L(+)-Tartrate (Form B)]"
recordedendpoint = "Final purity"
numericreadout = 99.3

[[record]]
compound = "COC[C@@]1(O)CC[C@@]2(C)[C@@H](CC[C@@H]3[C@@H]2CC[C@]2(C)[C@@H](C(=O)Cn4ccnc4)CC[C@@H]32)C1.O=C(O)CC(O)(CC(=O)O)C(=O)O [Compound 1 Citrate (Form B)]"
recordedendpoint = "Final purity"
numericreadout = 99.3


Turning to the following compound.
# query: Final purity of entry COCC1(O)CCC2(C)C(CCC3C2CCC2(C)C(C(=O)Cn4ccnc4)CCC32)C1.Cl (stereo not drawn) [Hydrochloride (Form C)]
100.0

---

Type: physicochemical
protocolConditions: Dark control
Overview of recorded Final purity for various compounds

[[record]]
compound = "COCC1(O)CCC2(C)C(CCC3C2CCC2(C)C(C(=O)Cn4ccnc4)CCC32)C1.Nc1ccc(C(=O)O)c(O)c1 (centres unmarked) [P-aminosalicylate (Form A)]"
result = 95.8

[[record]]
compound = "CCS(=O)(=O)O.COCC1(O)CCC2(C)C(CCC3C2CCC2(C)C(C(=O)Cn4ccnc4)CCC32)C1 (centres unmarked) [Ethanesulfonate (Form A)]"
result = 97.4

[[record]]
compound = "COC[C@@]1(O)CC[C@@]2(C)[C@@H](CC[C@@H]3[C@@H]2CC[C@]2(C)[C@@H](C(=O)Cn4ccnc4)CC[C@@H]32)C1.O=P(O)(O)O [Phosphate (Form A)]"
result = 99.2

[[record]]
compound = "COCC1(O)CCC2(C)C(CCC3C2CCC2(C)C(C(=O)Cn4ccnc4)CCC32)C1.O=C(O)C(Cl)Cl (centres unmarked) [Dichloroacetate (Form A)]"
result = 97.3

[[record]]
compound = "COC[C@@]1(O)CC[C@@]2(C)[C@@H](CC[C@@H]3[C@@H]2CC[C@]2(C)[C@@H](C(=O)Cn4ccnc4)CC[C@@H]32)C1.O=S(=O)(O)O [Sulfate (Form A)]"
result = 97.6

[[record]]
compound = "COCC1(O)CCC2(C)C(CCC3C2CCC2(C)C(C(=O)Cn4ccnc4)CCC32)C1.Cl (centres unmarked) [Hydrochloride (Form B)]"
result = 98.59


# query: Final purity of entry COC[C@@]1(O)CC[C@@]2(C)[C@@H](CC[C@@H]3[C@@H]2CC[C@]2(C)[C@@H](C(=O)Cn4ccnc4)CC[C@@H]32)C1.O=S(=O)(O)c1ccccc1 [Besylate (Form A)]
98.4

Another compound to check: COCC1(O)CCC2(C)C(CCC3C2CCC2(C)C(C(=O)Cn4ccnc4)CCC32)C1.CS(=O)(=O)O (centres unmarked) [Mesylate (Form A)]
99.4

---

Overview of recorded Final purity for various compounds
Type: physicochemical
protocolConditions: 60° C., 1 w
Provide a numeric answer; units are not to be included.

Some solved entries appear below for comparison.
[[record]]
compound = "COC[C@@]1(O)CC[C@@]2(C)[C@@H](CC[C@@H]3[C@@H]2CC[C@]2(C)[C@@H](C(=O)Cn4ccnc4)CC[C@@H]32)C1.O=C(O)CC(O)(CC(=O)O)C(=O)O [Compound 1 Citrate (Form A)]"
numericreadout = 99.5

[[record]]
compound = "COCC1(O)CCC2(C)C(CCC3C2CCC2(C)C(C(=O)Cn4ccnc4)CCC32)C1.Cl (stereo not drawn) [Hydrochloride (Form B)]"
numericreadout = 100.0


Turning to the following compound.
# query: Final purity of entry COCC1(O)CCC2(C)C(CCC3C2CCC2(C)C(C(=O)Cn4ccnc4)CCC32)C1.Nc1ccc(C(=O)O)c(O)c1 (stereo not drawn) [P-aminosalicylate (Form A)]
91.5

---

assayMethodText: Bulk density for salts of Compound 1
Type: physicochemical
protocolConditions: Form A
Overview of recorded Tapped Density for various compounds
Dear colleague, please return just the value in g/mL, with no unit written.

Some solved entries appear below for comparison.
[[record]]
compound = "O=C(O)C(O)C(O)C(=O)O (stereo not shown) [Tartrate]"
recordedendpoint = "Tapped Density"
unitstring = "g/mL"
numericreadout = 0.32

[[record]]
compound = "COCC1(O)CCC2(C)C(CCC3C2CCC2(C)C(C(=O)Cn4ccnc4)CCC32)C1.O=P(O)(O)O (stereo not shown) [Phosphate]"
recordedendpoint = "Tapped Density"
unitstring = "g/mL"
numericreadout = 0.33

[[record]]
compound = "O=C(O)CC(O)(CC(=O)O)C(=O)O [Citrate]"
recordedendpoint = "Tapped Density"
unitstring = "g/mL"
numericreadout = 0.70


Turning to the following compound.
# query: Tapped Density of entry Br.COC[C@@]1(O)CC[C@@]2(C)[C@@H](CC[C@@H]3[C@@H]2CC[C@]2(C)[C@@H](C(=O)Cn4ccnc4)CC[C@@H]32)C1
0.50

---

assayMethodText: Dynamic vapor sorption (DVS), gravimetric moisture sorption
Assay type: physicochemical
protocolConditions: at 80% Relative Humidity, 25° C.
recordedEndpoint: gravimetric moisture sorption

[[record]]
compound = "COC[C@@]1(O)CC[C@@]2(C)[C@@H](CC[C@@H]3[C@@H]2CC[C@]2(C)[C@@H](C(=O)Cn4ccnc4)CC[C@@H]32)C1.O=S(=O)(O)c1ccccc1 [Compound 1 Besylate (Form A)]"
result = "about 4.0 % (by weight)"

[[record]]
compound = "COCC1(O)CCC2(C)C(CCC3C2CCC2(C)C(C(=O)Cn4ccnc4)CCC32)C1.Nc1ccc(C(=O)O)c(O)c1 (stereo not drawn) [Compound 1 P-Aminosalicylate (Form A)]"
result = "about 4.0 % (by weight)"


---

Type: physicochemical
protocolConditions: 60° C., 1 w
recordedEndpoint: XRPD patterns

[[record]]
compound = "COC[C@@]1(O)CC[C@@]2(C)[C@@H](CC[C@@H]3[C@@H]2CC[C@]2(C)[C@@H](C(=O)Cn4ccnc4)CC[C@@H]32)C1.O=C(O)C(=O)O [Oxalate (Form A)]"
result = "Form A"

[[record]]
compound = "COCC1(O)CCC2(C)C(CCC3C2CCC2(C)C(C(=O)Cn4ccnc4)CCC32)C1.O=C(O)C(Cl)Cl (stereo not drawn) [Dichloroacetate (Form A)]"
result = "Form A"

[[record]]
compound = "COC[C@@]1(O)CC[C@@]2(C)[C@@H](CC[C@@H]3[C@@H]2CC[C@]2(C)[C@@H](C(=O)Cn4ccnc4)CC[C@@H]32)C1.Cl [Hydrochloride (Form A)]"
result = "Form A"

[[record]]
compound = "COCC1(O)CCC2(C)C(CCC3C2CCC2(C)C(C(=O)Cn4ccnc4)CCC32)C1.O=C(O)CC(O)C(=O)O [L-Malate (Form A)]"
result = "Form A"

[[record]]
compound = "COCC1(O)CCC2(C)C(CCC3C2CCC2(C)C(C(=O)Cn4ccnc4)CCC32)C1.Cl (stereo not drawn) [Hydrochloride (Form B)]"
result = "Form B"

[[record]]
compound = "COC[C@@]1(O)CC[C@@]2(C)[C@@H](CC[C@@H]3[C@@H]2CC[C@]2(C)[C@@H](C(=O)Cn4ccnc4)CC[C@@H]32)C1.O=C1O[C@H]([C@@H](O)CO)C(O)=C1O [Ascorbate (Form A)]"
result = "Form A"


# query: XRPD patterns of entry COCC1(O)CCC2(C)C(CCC3C2CCC2(C)C(C(=O)Cn4ccnc4)CCC32)C1.O=C(O)c1ccc2ccccc2c1O (stereo not drawn) [1-hydroxy-2-napthoate (Form A)]
Form A

Another compound to check: COCC1(O)CCC2(C)C(CCC3C2CCC2(C)C(C(=O)Cn4ccnc4)CCC32)C1.CS(=O)(=O)O (stereo not drawn) [Mesylate (Form A)]
Form A

Another compound to check: COCC1(O)CCC2(C)C(CCC3C2CCC2(C)C(C(=O)Cn4ccnc4)CCC32)C1.Cc1ccc(S(=O)(=O)O)cc1 (stereo not drawn) [Tosylate (Form A)]
Form A

Another compound to check: COC[C@@]1(O)CC[C@@]2(C)[C@@H](CC[C@@H]3[C@@H]2CC[C@]2(C)[C@@H](C(=O)Cn4ccnc4)CC[C@@H]32)C1.O=C(O)C[C@H](O)C(=O)O [L-Malate (Form B)]
Form B

Another compound to check: COCC1(O)CCC2(C)C(CCC3C2CCC2(C)C(C(=O)Cn4ccnc4)CCC32)C1.O=C(O)c1cc(O)ccc1O (stereo not drawn) [Gentisate salt (Form A)]
Form A
